TARGET OR SYSTEM: human CD33 A255S (human, UniProt P20138 18-364)
Sequence (P20138 18-364 A255S limits assumed): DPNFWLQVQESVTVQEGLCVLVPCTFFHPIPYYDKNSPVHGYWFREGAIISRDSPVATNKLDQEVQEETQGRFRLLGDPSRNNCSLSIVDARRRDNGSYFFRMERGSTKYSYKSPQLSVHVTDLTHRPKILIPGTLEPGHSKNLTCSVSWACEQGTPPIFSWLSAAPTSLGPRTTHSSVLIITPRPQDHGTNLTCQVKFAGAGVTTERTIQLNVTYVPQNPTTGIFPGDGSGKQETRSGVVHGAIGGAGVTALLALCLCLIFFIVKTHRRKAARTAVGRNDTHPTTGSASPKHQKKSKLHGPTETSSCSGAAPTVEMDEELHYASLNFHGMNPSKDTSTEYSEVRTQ
PROTOCOL: alanine scan, flow cytometry, HEK293-T;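 further: antibody binding to each alanine-substituted CD33 mutant expressed transiently in HEK293-T, read as fluorescence minus background, mean of duplicates, relative to wild-type CD33 set as 100%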
READOUT LABEL: Mean % WT Binding (% WT binding)
Numbers only here, please. The scale is % WT binding.

Request: Provide one value: measured Mean % WT Binding of Refmab #1 (antibody, V domains shown, The alanine scan used IgG or Fab; also called hP67.6) VH: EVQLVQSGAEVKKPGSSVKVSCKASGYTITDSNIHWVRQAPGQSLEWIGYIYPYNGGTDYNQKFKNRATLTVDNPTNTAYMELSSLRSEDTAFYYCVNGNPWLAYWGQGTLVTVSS VL: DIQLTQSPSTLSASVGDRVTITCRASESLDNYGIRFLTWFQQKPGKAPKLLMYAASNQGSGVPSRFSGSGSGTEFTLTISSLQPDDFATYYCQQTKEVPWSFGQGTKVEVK
Result: 98.8
